Below: a set of entries, each annotated with reported growth.
System: OVCAR-4 ovarian
Assay: NCI-60 one-dose screen, 48 h (100 = growth as untreated, 0 = no growth, -100 = all killed)
Settings: 10 µM unless noted
Compounds without any hit were thinned out: in the full panel of roughly 83,000, 20% have a hit. Activity calls are given as the source filed them. The calls were made as follows: active = growth percent below 10; inactive = the rest.

| Molecule | growth |
| --- | --- |
| COc1ccc(C2C(c3nn[nH]n3)=C(N)Oc3c2ccc2ccccc32)cc1 (stereo not given) | 83.7% (inactive) |
| CCN(CC)CCCCCCNc1cc(OC)c(Cl)c2cccnc12 | 73.6% (inactive) |
| CNC(=O)c1cc(Oc2cccc3nc(Nc4ccc(F)c(Cl)c4)ccc23)ccn1 | 40.1% (inactive) |
| CC(=O)N1C(=S)NC(=O)C1Cn1c(-c2ccccc2)nc2ccccc21 (stereo not given) | 102% (inactive) |
| CCOc1ccccc1-c1cc(-c2cccs2)c(C#N)c(=O)[nH]1 | 39.2% (inactive) |
